Target: R47H TREM2 mutant (Homo sapiens, UniProt Q9NZC2, R47H)
Construct: expressed in transfected cells
Sequence (Q9NZC2 19-230 R47H): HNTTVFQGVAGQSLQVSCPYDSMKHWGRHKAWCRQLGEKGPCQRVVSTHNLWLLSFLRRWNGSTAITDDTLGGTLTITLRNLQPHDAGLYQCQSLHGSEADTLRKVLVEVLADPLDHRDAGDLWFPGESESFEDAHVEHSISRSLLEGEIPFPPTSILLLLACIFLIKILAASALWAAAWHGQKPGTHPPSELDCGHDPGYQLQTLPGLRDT
Sequence (O43914 22-113 partner): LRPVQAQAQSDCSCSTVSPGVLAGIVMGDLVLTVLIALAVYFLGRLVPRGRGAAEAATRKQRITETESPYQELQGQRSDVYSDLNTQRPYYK
Assay: Liposome stimulation pSyk AlphaLISA, HEK293 overexpressing TREM2-R47H and DAP12
Format: cell-based
Settings: liposomes 30% lipid/70% PC (KLA 10%/90%), fold change over HBSS
# reported R47H TREM2 mutant (pSyk FOB); entries follow

Some entries whose results are on file:
# compound, result
records = [
    ("CCCCCCCCCCCCCCCC(=O)OC[C@H](COP(=O)([O-])OCC[N+](C)(C)C)OC(=O)CCCC=O", "1.57 FOB"),
    ("CC(C)CCC[C@@H](C)[C@H]1CC[C@H]2[C@@H]3C(=O)C=C4C[C@@H](O)CC[C@]4(C)[C@H]3CC[C@]12C", "3.42 FOB"),
    ("CCCCCCCCCCCCC/C=C/[C@@H](O)[C@@H](N)COP(=O)(O)O [Sphingosine-1-phosphate (SolP), Sphingosine-1-phosphate]", "3.94 FOB"),
    ("CCCCCCCCCCCCCCC[C@@H](O)[C@@H](N)CO", "1.39 FOB"),
]

Moving on to another compound below.
Report R47H TREM2 mutant (pSyk FOB), nothing else, for this compound: CCCCCCCC/C=C\CCCCCCCC(=O)OC[C@H](COP(=O)([O-])OCC[N+](C)(C)C)OC(=O)CCCCCCC/C=C\CCCCCCCC [100% Phosphatidylcholine (PC), 1,2-dioleoyl-sn-glycero-3-phosphocholine, reference compound]
2.27 FOB

----------
# reported DAP12 alone (pSyk FOB); entries follow
Target: DAP12 alone (Homo sapiens, UniProt O43914)
Construct: expressed in transfected cells
Sequence (O43914 22-113): as the sequence (O43914 22-113 partner) above
Test: Liposome stimulation pSyk AlphaLISA, HEK293 expressing DAP12 alone
Format: cell-based
Conditions: liposomes 30% lipid/70% PC (KLA 10%/90%), fold change over HBSS
Answer format: numeric, FOB implied, no suffix.

Some entries whose results are on file:
# molecule, observable, readout-number
rows = [
    ("CCCCCCCCCCCCC/C=C/[C@@H](O)[C@@H](N)COP(=O)([O-])OCC[N+](C)(C)C", "DAP12 alone (pSyk FOB)", 1.03),
    ("CCCCCCCCCCCCC/C=C/[C@@H](O)[C@@H](N)CO[C@@H]1O[C@H](CO)[C@H](O)[C@H](O)[C@H]1O", "DAP12 alone (pSyk FOB)", 0.71),
    ("CC(C)CCC[C@@H](C)[C@H]1CC[C@H]2[C@@H]3C(=O)C=C4C[C@@H](O)CC[C@]4(C)[C@H]3CC[C@]12C", "DAP12 alone (pSyk FOB)", 1.36),
    ("CCCCCCCCCCCCCCCC(=O)OC[C@H](COP(=O)([O-])OCC[N+](C)(C)C)OC(=O)CCCC=O", "DAP12 alone (pSyk FOB)", 1.34),
]

Report DAP12 alone (pSyk FOB), nothing else, for this molecule: CCCCC/C=C\C/C=C\C/C=C\C/C=C\CCCC(=O)OC(CO)CO
1.11

Report DAP12 alone (pSyk FOB), nothing else, for this molecule: CC(C)CCC[C@@H](C)[C@H]1CC[C@H]2[C@@H]3CC=C4C[C@@H](OP(=O)(O)O)CC[C@]4(C)[C@H]3CC[C@]12C [Cholesterol phosphate (CP), Cholesterol phosphate]
1.27

Report DAP12 alone (pSyk FOB), nothing else, for this molecule: C[C@H](CCCC(C)(C)O)[C@H]1CC[C@H]2[C@@H]3CC=C4C[C@@H](O)CC[C@]4(C)[C@H]3CC[C@]12C [25(S)hydroxycholesterol (25OHC), 25(S)hydroxycholesterol]
1.20

Report DAP12 alone (pSyk FOB), nothing else, for this molecule: CCCCCCCCCCCCC/C=C/[C@@H](O)[C@@H](N)CO
1.32

----------
Biological target: R47H TREM2 mutant (Homo sapiens, UniProt Q9NZC2, R47H)
Construct: expressed in transfected cells
Test: Liposome stimulation pSyk AlphaLISA, HEK293 overexpressing TREM2-R47H and DAP12
Assay type: cell-based
Settings: liposomes 30% lipid/70% PC (KLA 10%/90%), fold change over HBSS
Threshold 2 FOB. R47H TREM2 mutant (pSyk FOB) below it: TRUE. R47H TREM2 mutant (pSyk FOB) at it or above: FALSE.

Answered cases to consult:
# molecule, cat
records = [
    ("CC(C)CCC[C@@H](C)[C@H]1CC[C@H]2[C@@H]3CC=C4C[C@@H](O)CC[C@]4(C)[C@H]3CC[C@]12C [Free cholesterol (FC), Free cholesterol]", "FALSE"),
    ("CC(C)[C@@H](O)CC[C@@H](C)[C@H]1CC[C@H]2[C@@H]3CC=C4C[C@@H](O)CC[C@]4(C)[C@H]3CC[C@]12C [24(S)hydroxycholesterol (24OHC), 24(S)hydroxycholesterol]", "FALSE"),
    ("CCCCCCCCCCCCCC(=O)O[C@H](CCCCCCCCCCC)CC(=O)O[C@@H]1[C@@H](NC(=O)C[C@@H](CCCCCCCCCCC)OC(=O)CCCCCCCCCCC)[C@H](OC[C@H]2O[C@H](OP(=O)(O)O)[C@H](NC(=O)C[C@H](O)CCCCCCCCCCC)[C@@H](OC(=O)C[C@H](O)CCCCCCCCCCC)[C@@H]2O)O[C@H](CO[C@]2(C(=O)O)C[C@@H](O[C@]3(C(=O)O)C[C@@H](O)[C@@H](O)[C@@H]([C@H](O)CO)O3)[C@@H](O)[C@@H]([C@H](O)CO)O2)[C@H]1OP(=O)(O)O [Kdo2-Lipid A (KLA), Kdo2-Lipid A]", "FALSE"),
    ("CCCCC/C=C\\C/C=C\\C/C=C\\C/C=C\\CCCC(=O)OC(CO)CO [2-Arachidonoylglycerol (2-AG), 2-Arachidonoylglycerol]", "TRUE"),
    ("C[C@H](CCCC(C)(C)O)[C@H]1CC[C@H]2[C@@H]3CC=C4C[C@@H](O)CC[C@]4(C)[C@H]3CC[C@]12C [25(S)hydroxycholesterol (25OHC), 25(S)hydroxycholesterol]", "FALSE"),
]

Is R47H TREM2 mutant (pSyk FOB) of CC(C)CCC[C@@H](C)[C@H]1CC[C@H]2[C@@H]3CC=C4C[C@@H](OP(=O)(O)O)CC[C@]4(C)[C@H]3CC[C@]12C [Cholesterol phosphate (CP), Cholesterol phosphate] strictly below 2 FOB?
FALSE

Is R47H TREM2 mutant (pSyk FOB) of CCCCCCCCCCCCC/C=C/[C@@H](O)[C@@H](N)CO [Sphingosine] strictly below 2 FOB?
TRUE

Is R47H TREM2 mutant (pSyk FOB) of CCCCCCCCCCCCCCC[C@@H](O)[C@@H](N)COP(=O)(O)O [Sphinganine-1-phosphate (SalP), Sphinganine-1-phosphate] strictly below 2 FOB?
FALSE

Is R47H TREM2 mutant (pSyk FOB) of CCCCCCCCCCCCC/C=C/[C@@H](O)[C@@H](N)CO[C@@H]1O[C@H](CO)[C@H](O)[C@H](O)[C@H]1O [Galactosylsphingosine (GalSo), Galactosylsphingosine] strictly below 2 FOB?
TRUE

----------
Target: TREM2 (Homo sapiens)
Construct: expressed in transfected cells
Sequence (Q9NZC2 19-230, one chain of several): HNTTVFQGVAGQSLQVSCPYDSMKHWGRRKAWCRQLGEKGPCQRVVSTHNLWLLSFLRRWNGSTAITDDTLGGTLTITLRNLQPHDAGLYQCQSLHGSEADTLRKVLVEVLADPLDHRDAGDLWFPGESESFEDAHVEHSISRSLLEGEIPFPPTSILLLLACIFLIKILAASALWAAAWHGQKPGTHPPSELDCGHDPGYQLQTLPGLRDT
Test: Liposome stimulation pSyk AlphaLISA, HEK293 overexpressing TREM2 and DAP12
Type: cell-based
Settings: liposomes 30% lipid/70% PC (KLA 10%/90%), fold change over HBSS
# reported Human TREM2 (pSyk FOB); entries follow
Answer format: numeric, FOB implied, no suffix.

Some entries whose results are on file:
# compound, Human TREM2 (pSyk FOB)
records = [
    ("CCCCCCCCCCCCCC(=O)O[C@H](CCCCCCCCCCC)CC(=O)O[C@@H]1[C@@H](NC(=O)C[C@@H](CCCCCCCCCCC)OC(=O)CCCCCCCCCCC)[C@H](OC[C@H]2O[C@H](OP(=O)(O)O)[C@H](NC(=O)C[C@H](O)CCCCCCCCCCC)[C@@H](OC(=O)C[C@H](O)CCCCCCCCCCC)[C@@H]2O)O[C@H](CO[C@]2(C(=O)O)C[C@@H](O[C@]3(C(=O)O)C[C@@H](O)[C@@H](O)[C@@H]([C@H](O)CO)O3)[C@@H](O)[C@@H]([C@H](O)CO)O2)[C@H]1OP(=O)(O)O", 5.15),
    ("CCCCCCCCCCCCCCC[C@@H](O)[C@@H](N)CO", 0.76),
    ("CCCCCCCCCCCCCCCCCCCCCCCCCC(=O)N[C@@H](CO[C@H]1O[C@H](CO)[C@H](O)[C@H](O)[C@H]1O)[C@H](O)[C@H](O)CCCCCCCCCCCCCC [α-galactosylceramide (KRN7000), α-galactosylceramide]", 0.79),
    ("CCCCC/C=C\\C/C=C\\C/C=C\\C/C=C\\CCCC(=O)OC(CO)CO", 0.68),
    ("CCCCCCCCCCCCC/C=C/[C@@H](O)[C@@H](N)CO[C@@H]1O[C@H](CO)[C@H](O)[C@H](O)[C@H]1O", 1.09),
    ("CCCCCCCCCCCCCCC[C@@H](O)[C@@H](N)COP(=O)(O)O [Sphinganine-1-phosphate (SalP), Sphinganine-1-phosphate]", 3.31),
    ("CCCCCCCC/C=C\\CCCCCCCC(=O)OC[C@H](COP(=O)([O-])OCC[N+](C)(C)C)OC(=O)CCCCCCC/C=C\\CCCCCCCC [100% Phosphatidylcholine (PC), 1,2-dioleoyl-sn-glycero-3-phosphocholine, reference compound]", 2.01),
]

Moving on to another compound below.
Report Human TREM2 (pSyk FOB), nothing else, for this compound: CC(C)CCC[C@@H](C)[C@H]1CC[C@H]2[C@@H]3CC=C4C[C@@H](O)CC[C@]4(C)[C@H]3CC[C@]12C [Free cholesterol (FC), Free cholesterol]
1.04

FYI, the data here is from patent US20200277373A1.
